Test system: NCI-N87
Experiment: In vitro cytotoxicity assay (MTT)
Assay type: cell-based, human
Conditions: 6 days incubation
Procedure: In vitro cytotoxicity of compounds of the disclosure was assessed on several cancerous human cell lines. […] Absorbance values were measured on a microplate reader using a wavelength of 570 nm (with a reference wavelength of 690 nm). The IC50 concentration values compared to untreated control cells were determined using inhibition dose response curve fitting (GraphPad Prism 9). […]
For each record, write down the corresponding IC50.

// worked examples, IC50 included
compound	IC50
N#Cc1cnn2c(NCc3ccc(-c4ccccn4)cc3)nc(N[C@H]3CC[C@H](N)CC3)nc12 [Compound 2478]	6.88 nM
CC[C@H](CO)Nc1nc(NCc2ccc(-c3ccccn3)cc2)c2ncn(C(C)C)c2n1 [CR8, reference compound]	62.2 nM
Brc1cnn2c(NCc3ccc(-c4ccccn4)cc3)nc(N[C@@H]3CCCNC3)nc12 [Compound 2660]	0.49 nM
Brc1cnn2c(NCc3ccc(-c4ccccn4)cc3)nc(N[C@H]3CCNC3)nc12 [Compound 2657]	0.43 nM

Which IC50 reading was recorded for the compound Brc1cnn2c(Nc3ccc(CN4CCOCC4)cc3)nc(NC3CCNCC3)nc12 [Compound 2554] ?
> 100 nM

* * *

Tested on: BT-474
Experiment: In vitro cytotoxicity assay (MTT)
Assay type: cell-based, human
Conditions: BT-474; 6 days incubation, MTT
Provide the reported pIC50 of each item.
One number for each entry, as −log10 of the molar value.

Give pIC50 for each listed item.
1. Brc1cnn2c(NCc3ccc(-c4ccccn4)cc3)nc(N[C@@H]3CCCNC3)nc12
2. Brc1cnn2c(NCc3ccc(-c4ccccn4)cc3)nc(N[C@H]3CCNC3)nc12
3. CC[C@H](CO)Nc1nc(NCc2ccc(-c3ccccn3)cc2)c2ncn(C(C)C)c2n1 [CR8, reference compound]

1. 8.90
2. 8.77
3. 7.74

Reported pIC50, molecule N#Cc1cnn2c(NCc3ccc(-c4ccccn4)cc3)nc(N[C@H]3CC[C@H](N)CC3)nc12 : ____
8.76

* * *

Would you kindly list log10 IC50 for each of these compounds?
Test system: NCI-N87
Experiment: In vitro cytotoxicity assay (MTT)
Assay type: cell-based, human
Conditions: Homo sapiens, NCI-N87, 144 h, 6 days incubation
Parameter value (number): base-10 log of IC50 in nM.

Below, 4 compounds whose answers are already recorded.
compound	assayed_target	log10 IC50
N[C@H]1CCC[C@@H](Nc2nc(NCc3ccc(-c4ccccn4)cc3)n3ncc(Br)c3n2)C1 [Compound 2670]	NCI-N87	0.40
Brc1cnn2c(NCc3ccc(-c4ccccn4)cc3)nc(NCC3CCNCC3)nc12 [Compound 2569]	NCI-N87	1.29
N[C@H]1CCCC[C@H]1Nc1nc(NCc2ccc(-c3ccccn3)cc2)n2ncc(Br)c2n1 [Compound 2672]	NCI-N87	-0.26
N[C@H]1CCCC[C@@H]1Nc1nc(NCc2ccc(-c3ccccn3)cc2)n2ncc(Br)c2n1 [Compound 2671]	NCI-N87	0.17

Please look at the items below and tell me log10 IC50 for each one, in order.
1. O[C@H]1CN[C@H](CNc2nc(NCc3ccc(-c4ccccn4)cc3)n3ncc(Br)c3n2)C1 [Compound 2538]
2. CN(CCN)c1nc(NCc2ccc(-c3ccccn3)cc2)n2ncc(Br)c2n1 [Compound 2600]
3. CNCCN(C)c1nc(NCc2ccc(-c3ccccn3)cc2)n2ncc(Br)c2n1 [Compound 2605]

1: 1.33; 2: 0.12; 3: 0.65
